Measured AUC accompanies every entry in the list below.
- experimental_protocol: Male Sprague Dawley rat pharmacokinetics, oral 10 mg/kg (Example D)
- Assay type: in vivo
- particulars: male, Sprague Dawley; Rat; oral dose 10 mg/kg; plasma
Give the quantity in ng·h/mL, number only.

compound_smiles	test_result
COCCN1C[C@@H](NC(=O)Nc2c(C)c(-c3cnc(C)nc3)nn2-c2ccccc2)[C@H](c2ccc(F)c(F)c2)C1	925
COCCN1C[C@@H](NC(=O)Nc2c(C)c(-c3cnc(C)nc3)nn2-c2ccccc2)[C@H](c2cccc(F)c2)C1	2570

Given COCCN1C[C@@H](NC(=O)Nc2c(C)c(-c3cnn(C)c3)nn2-c2ccccc2)[C@H](c2ccc(F)cc2)C1 , state its recorded AUC.
1060

* * *

Measured clearance accompanies every entry in the list below.
- experimental_protocol: IV clearance, 1 mg/kg IV, dog
- Type: in vivo
- particulars: male, Beagle, plasma, 1 mg/kg IV
Give the quantity in mL/min/kg, number only.

Known clearance results, listed for orientation:
compound	clearance / mL/min/kg
COCCN1C[C@@H](NC(=O)Nc2c(C)c(-c3cnn(C)c3)nn2-c2ccccc2)[C@H](c2ccc(F)cc2)C1 [Compound 3]	18
COCCN1C[C@@H](NC(=O)Nc2c(C)c(-c3cnc(C)nc3)nn2-c2ccccc2)[C@H](c2ccc(F)c(F)c2)C1 [Compound 2]	25

Attention now turns to another entry.
Given COCCN1C[C@@H](NC(=O)Nc2c(C)c(-c3cnc(C)nc3)nn2-c2ccccc2)[C@H](c2cccc(F)c2)C1 [Compound 1] , state its recorded clearance.
7.6

* * *

- experimental_protocol: Liver microsomal clearance, human
- Type: in vitro ADME
- particulars: pH 7.4; Human liver microsomes; 1 mg/mL; 20 minutes
Measured CLhep predicted at 1 μM accompanies every entry in the list below.
Give the quantity in mL/min/kg, number only.

Known CLhep predicted at 1 μM results, listed for orientation:
compound_smiles	value_unit	test_result
COCCN1C[C@@H](NC(=O)Nc2c(C)c(-c3cnc(C)nc3)nn2-c2ccccc2)[C@H](c2cccc(F)c2)C1	mL/min/kg	9.8
COCCN1C[C@@H](NC(=O)Nc2c(C)c(-c3cnc(C)nc3)nn2-c2ccccc2)[C@H](c2ccc(F)c(F)c2)C1	mL/min/kg	14

Attention now turns to another entry.
Given COCCN1C[C@@H](NC(=O)Nc2c(C)c(-c3cnn(C)c3)nn2-c2ccccc2)[C@H](c2ccc(F)cc2)C1 , state its recorded CLhep predicted at 1 μM.
10

* * *

- experimental_protocol: IV clearance, 1 mg/kg IV, mouse
- Assay type: in vivo
- particulars: plasma, 1 mg/kg IV
Measured clearance accompanies every entry in the list below.
Give the quantity in mL/min/kg, number only.

compound_smiles	clearance [mL/min/kg]
COCCN1C[C@@H](NC(=O)Nc2c(C)c(-c3cnc(C)nc3)nn2-c2ccccc2)[C@H](c2ccc(F)c(F)c2)C1	42

Attention now turns to another entry.
Given COCCN1C[C@@H](NC(=O)Nc2c(C)c(-c3cnn(C)c3)nn2-c2ccccc2)[C@H](c2ccc(F)cc2)C1 , state its recorded clearance.
71

* * *

- measured_target: CHO-K1 cells transfected with human wild type TrkA (Homo sapiens, UniProt P04629)
- Sequence (P04629 33-796): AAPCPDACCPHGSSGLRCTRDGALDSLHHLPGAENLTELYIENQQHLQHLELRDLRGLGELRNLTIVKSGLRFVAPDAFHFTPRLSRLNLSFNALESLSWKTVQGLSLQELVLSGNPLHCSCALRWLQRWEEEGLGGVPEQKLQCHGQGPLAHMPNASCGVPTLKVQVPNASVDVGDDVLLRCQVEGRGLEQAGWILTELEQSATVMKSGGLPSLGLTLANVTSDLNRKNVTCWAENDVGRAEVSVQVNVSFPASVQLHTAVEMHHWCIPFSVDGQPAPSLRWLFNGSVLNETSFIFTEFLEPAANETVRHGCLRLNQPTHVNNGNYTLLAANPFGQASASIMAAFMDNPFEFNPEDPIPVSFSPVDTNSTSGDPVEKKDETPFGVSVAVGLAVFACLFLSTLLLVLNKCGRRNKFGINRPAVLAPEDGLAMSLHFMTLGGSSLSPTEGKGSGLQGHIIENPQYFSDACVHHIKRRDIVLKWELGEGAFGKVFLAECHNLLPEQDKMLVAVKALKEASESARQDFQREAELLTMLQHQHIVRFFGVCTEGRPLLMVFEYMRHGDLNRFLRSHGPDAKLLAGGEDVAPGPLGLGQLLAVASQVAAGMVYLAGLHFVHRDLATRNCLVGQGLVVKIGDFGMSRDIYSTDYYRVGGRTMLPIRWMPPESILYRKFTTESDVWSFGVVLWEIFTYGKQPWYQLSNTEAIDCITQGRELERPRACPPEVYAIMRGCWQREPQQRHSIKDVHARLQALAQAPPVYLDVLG
- experimental_protocol: TrkA Cell Assay, phospho-TrkA ELISA (Example B)
- particulars: assay of Example B, 30 ng/mL human NGF, read-out: averaged IC50 value, phospho-TrkA
readout_type: IC50 (nM)
Give the quantity in nM, number only.

Known IC50 results, listed for orientation:
compound	value_unit	IC50
COCCN1C[C@@H](NC(=O)Nc2c(C)c(-c3cnn(C)c3)nn2-c2ccccc2)[C@H](c2ccc(F)cc2)C1 [Compound 3]	nM	6.1
COCCN1C[C@@H](NC(=O)Nc2c(C)c(-c3cnc(C)nc3)nn2-c2ccccc2)[C@H](c2cccc(F)c2)C1 [Compound 1]	nM	1.9

Attention now turns to another entry.
Lab note: need IC50 with CHO-K1 cells transfected with human wild type TrkA (Homo sapiens, UniProt P04629) for entry COCCN1C[C@@H](NC(=O)Nc2c(C)c(-c3cnc(C)nc3)nn2-c2ccccc2)[C@H](c2ccc(F)c(F)c2)C1 [Compound 2] , please look it up.
1.3
